Assignment: determine reported IC50 for the given compounds.
tested on: HepG2; assay: Cytotoxicity against human HepG2 cells after 96 hrs by MTT assay; type: functional, cell-based; details: HepG2, 96 h

Solved cases (3 shown):
INSERT INTO assay_data (line_notation, reported_value) VALUES
  ('N#C/C(c1nnc(NC(=O)c2ccccc2)o1)=c1\sc(=O)/c(=C/c2cn(-c3ccccc3)nc2-c2ccccc2)n1-c1ccccc1', '250 µg/mL'),
  ('CS/C(Nc1ccccc1)=C(\C#N)c1nnc(NC(=O)c2ccccc2)o1', '125 µg/mL'),
  ('Nc1n[nH]c(Nc2ccccc2)c1-c1nnc(NC(=O)c2ccccc2)o1', '33.7 µg/mL');

Batch lookup, IC50 per entry.
1. CC(=O)c1sc(Nc2ccccc2)c(-c2nnc(NC(=O)c3ccccc3)o2)c1N
2. O=C(Nc1nnc(-c2nc3c(ccc4ccccc43)oc2=O)o1)c1ccccc1
3. Nc1c(C(=O)c2ccccc2)sc(Nc2ccccc2)c1-c1nnc(NC(=O)c2ccccc2)o1
4. Nc1nn(-c2ccccc2)c(Nc2ccccc2)c1-c1nnc(NC(=O)c2ccccc2)o1
5. NC1=Nn2c(nnc2NC(=O)c2ccccc2)C1

Solution:
["70.2 µg/mL", "190 µg/mL", "90.7 µg/mL", "98.7 µg/mL", "65.6 µg/mL"]

Problem: Fill in the blank: the reported IC50 of `N#C/C(=C/c1cn(-c2ccccc2)nc1-c1ccccc1)c1nnc(NC(=O)c2ccccc2)o1` is ____.
Solution: 38.1 µg/mL

====

tested on: MCF7; assay: Cytotoxicity against human MCF7 cells after 96 hrs by MTT assay; format: functional, cell-based; details: MCF7, 96 h
Assay endpoint: IC50

Example entries and their recorded answers appear below.
INSERT INTO results (line_notation, system, reported_value) VALUES
  ('O=C(Nc1nnc(-c2cc3ccccc3oc2=O)o1)c1ccccc1', 'MCF7', '32.6 µg/mL'),
  ('Cc1c(/C=c2/c(=O)s/c(=C(\C#N)c3nnc(NC(=O)c4ccccc4)o3)n2-c2ccccc2)c(=O)n(-c2ccccc2)n1C', 'MCF7', '167 µg/mL'),
  ('Nc1nn(-c2ccccc2)c(Nc2ccccc2)c1-c1nnc(NC(=O)c2ccccc2)o1', 'MCF7', '99.1 µg/mL'),
  ('CS/C(Nc1ccccc1)=C(\C#N)c1nnc(NC(=O)c2ccccc2)o1', 'MCF7', '107 µg/mL'),
  ('N#C/C(c1nnc(NC(=O)c2ccccc2)o1)=c1\sc(=O)/c(=C/c2cn(-c3ccccc3)nc2-c2ccccc2)n1-c1ccccc1', 'MCF7', '411 µg/mL'),
  ('CC1=CS/C(=C(\C#N)c2nnc(NC(=O)c3ccccc3)o2)N1c1ccccc1', 'MCF7', '25.8 µg/mL');

Problem: Which IC50 reading was recorded for the compound `Nc1n[nH]c(Nc2ccccc2)c1-c1nnc(NC(=O)c2ccccc2)o1` ?
Solution: 38.3 µg/mL

====

tested on: MCF7; experiment: Cytotoxicity against human MCF7 cells after 96 hrs by MTT assay; format: functional, cell-based; details: MCF7, 96 h
Assay endpoint: IC50 (µg/mL)
Give bare numbers, in µg/mL.

Solved cases (5 shown):
INSERT INTO assay_data (line_notation, system, unit_text, reported_value) VALUES
  ('N#CCc1nnc(NC(=O)c2ccccc2)o1', 'MCF7', 'µg/mL', 39.2),
  ('N#C/C(=C/c1cn(-c2ccccc2)nc1-c1ccccc1)c1nnc(NC(=O)c2ccccc2)o1', 'MCF7', 'µg/mL', 37.4),
  ('N#C/C(=C(\S)Nc1ccccc1)c1nnc(NC(=O)c2ccccc2)o1', 'MCF7', 'µg/mL', 77.5),
  ('COc1ccc(/C=C(/C#N)c2nnc(NC(=O)c3ccccc3)o2)cc1', 'MCF7', 'µg/mL', 49.9),
  ('Nc1c(C(=O)c2ccccc2)sc(Nc2ccccc2)c1-c1nnc(NC(=O)c2ccccc2)o1', 'MCF7', 'µg/mL', 100);

The following molecules each have a reported value; give each one's IC50.
1. CC(=O)c1sc(Nc2ccccc2)c(-c2nnc(NC(=O)c3ccccc3)o2)c1N
2. N#C/C(=C1\SC(=O)CN1c1ccccc1)c1nnc(NC(=O)c2ccccc2)o1

Solution:
75.5
69.2

Hey, quick one: what's IC50 for each of these?
1. O=C(Nc1nnc(-c2nc3ccc4ccccc4c3oc2=O)o1)c1ccccc1
2. NC1=Nn2c(nnc2NC(=O)c2ccccc2)C1
3. O=C(Nc1nnc(-c2nc3c(ccc4ccccc43)oc2=O)o1)c1ccccc1

Solution:
[96.9, 66.8, 222]

====

test system: HepG2; assay: Cytotoxicity against human HepG2 cells after 96 hrs by MTT assay; type: functional, cell-based; conditions: HepG2, 96 h
Task for the reader: assign each of the following compounds its reported IC50.
Give bare numbers, in µg/mL.

These recorded examples may help you get a feel for the data.
INSERT INTO assay_data (line_notation, assay_endpoint, reported_value) VALUES
  ('N#C/C(=C1\SC(=O)CN1c1ccccc1)c1nnc(NC(=O)c2ccccc2)o1', 'IC50', 51.2),
  ('CC1=CS/C(=C(\C#N)c2nnc(NC(=O)c3ccccc3)o2)N1c1ccccc1', 'IC50', 12.4);

Turning to the following compound.
Problem: Fill in: IC50 of `O=C(Nc1nnc(-c2cc3ccccc3oc2=O)o1)c1ccccc1` is ___
Solution: 35.6

====

tested on: HepG2; experiment: Cytotoxicity against human HepG2 cells after 96 hrs by MTT assay; assay type: functional, cell-based; details: HepG2, 96 h
Entries whose IC50 is below 100 µg/mL take True; entries at or above 100 µg/mL take False.

Below, 3 compounds whose answers are already recorded.
INSERT INTO results (line_notation, label) VALUES
  ('N#CCc1nnc(NC(=O)c2ccccc2)o1', 'True'),
  ('O=C(Nc1nnc(-c2nc3ccc4ccccc4c3oc2=O)o1)c1ccccc1', 'False'),
  ('Cc1c(/C=c2/c(=O)s/c(=C(\C#N)c3nnc(NC(=O)c4ccccc4)o3)n2-c2ccccc2)c(=O)n(-c2ccccc2)n1C', 'False');

Problem: Does this compound meet the criterion IC50 < 100 µg/mL? `COc1ccc(/C=C(/C#N)c2nnc(NC(=O)c3ccccc3)o2)cc1`
Solution: True
